B1: Calcium-binding protein 2, residues 155 to 219; numbered along this chain, Q9NPB3 (parent)
chain: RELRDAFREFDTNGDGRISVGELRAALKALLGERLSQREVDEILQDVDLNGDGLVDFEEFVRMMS

- Variants of: B1
- test.protocol: abundance fitness (aPCA) (normalised: wild type 0, dead -1); higher = more abundant; growth selection in yeast, the domain comes from the species named
- assay.context: Homo sapiens
Please enter yes (1) where abundance fitness is greater than or equal to -0.09, and no (0) where it is lower.

S36N; no (0)

INPUT: // inclusive: abundance fitness at least -0.09? input: I43C
OUTPUT: yes (1)

INPUT: // inclusive: abundance fitness at least -0.09? input: Q37C
OUTPUT: no (0)

INPUT: // inclusive: abundance fitness at least -0.09? input: V55D
OUTPUT: no (0)

INPUT: // inclusive: abundance fitness at least -0.09? input: L31M
OUTPUT: yes (1)

INPUT: // inclusive: abundance fitness at least -0.09? input: D56A
OUTPUT: yes (1)
